test-target: UniProt Q8TDV5
assay-overview: Agonist activity at human GPR119 by HTRF cAMP assay relative to AR231453
Format: functional
Provide the recorded Emax for the entries that follow.
One number for each entry, in %.

Give one value of Emax per listed compound.
1. CS(=O)(=O)c1cnc(O[C@H]2CC[C@H](OC3CCN(C(=O)Oc4ccccc4)CC3)CC2)cn1
2. CS(=O)(=O)c1cnc(O[C@H]2CC[C@H](OC3CCN(C(=O)C4(C(F)(F)F)CCCC4)CC3)CC2)cn1
3. CS(=O)(=O)c1cnc(O[C@H]2CC[C@H](OC3CCN(CC4(C(F)(F)F)CC4)CC3)CC2)cn1
4. CC(C)(C)OC(=O)N1CCC(O[C@H]2CC[C@H](Oc3ccc(S(C)(=O)=O)c(F)c3)CC2)CC1
5. CC(C)(C)OC(=O)N1CCC(O[C@H]2CC[C@H](Oc3ccc(S(C)(=O)=O)cc3)CC2)CC1
6. CS(=O)(=O)c1cnc(O[C@H]2CC[C@H](OC3CCN(C(=O)OC(CF)CF)CC3)CC2)cn1
7. CC(C)(C)OC(=O)N1CCC(O[C@H]2CC[C@H](Oc3ccc(S(C)(=O)=O)cn3)CC2)CC1

116
95
116
106
115
114
111

Give one value of Emax per listed compound.
1. CC(C)(C)OC(=O)N1CCC(O[C@H]2CC[C@H](Oc3ccc(S(C)(=O)=O)cc3F)CC2)CC1
2. CS(=O)(=O)c1cnc(O[C@H]2CC[C@H](OC3CCN(C(=O)OC(C(F)(F)F)C(F)(F)F)CC3)CC2)cn1

1: 113; 2: 104

Give one value of Emax per listed compound.
1. Cc1nc(S(C)(=O)=O)ccc1Oc1ncnc(OC2CCN(C(=O)OC3(C)CC3)CC2)c1F
2. CC1(OC(=O)N2CCC(O[C@H]3CC[C@H](Oc4cnc(S(C)(=O)=O)cn4)CC3)CC2)CC1
3. CS(=O)(=O)c1cnc(O[C@H]2CC[C@H](OC3CCN(CC4(C(F)(F)F)CCCC4)CC3)CC2)cn1

[94, 118, 37]

Give one value of Emax per listed compound.
1. CS(=O)(=O)c1cnc(O[C@H]2CC[C@H](OC3CCN(C(=O)C4(C(F)(F)F)CC4)CC3)CC2)cn1
2. CC(C)OC(=O)N1CCC(O[C@H]2CC[C@H](Oc3ccc(S(C)(=O)=O)nc3)CC2)CC1
3. CC(C)(C)OC(=O)N1CCC(O[C@H]2CC[C@H](Oc3cnc(C#N)cn3)CC2)CC1

1. 107
2. 101
3. 110

###

assay-overview: Half life in mouse liver microsomes
Type: ADME
Provide the recorded half-life for the entries that follow.

For orientation, consider the following solved cases.
1. CCC(F)(F)C(=O)N1CCC(O[C@H]2CC[C@H](Oc3cnc(S(C)(=O)=O)cn3)CC2)CC1    0.05 h
2. C[C@@H](OC(=O)N1CCC(O[C@H]2CC[C@H](Oc3cnc(S(C)(=O)=O)cn3)CC2)CC1)C(F)(F)F    > 1 h
3. CC(C)OC(=O)N1CCC(O[C@H]2CC[C@H](Oc3cnc(S(C)(=O)=O)cn3)CC2)CC1    > 1 h

Give one value of half-life per listed compound.
1. CS(=O)(=O)c1cnc(O[C@H]2CC[C@H](OC3CCN(C(=O)OC(C(F)(F)F)C(F)(F)F)CC3)CC2)cn1
2. CS(=O)(=O)c1cnc(O[C@H]2CC[C@H](OC3CCN(CC4(C(F)(F)F)CC4)CC3)CC2)cn1
3. C[C@H](OC(=O)N1CCC(O[C@H]2CC[C@H](Oc3cnc(S(C)(=O)=O)cn3)CC2)CC1)C(F)(F)F

> 1 h
0.617 h
> 1 h

Recorded half-life of CS(=O)(=O)c1cnc(O[C@H]2CC[C@H](OC3CCN(C(=O)OC(CF)CF)CC3)CC2)cn1 , please.
> 1 h

###

test-target: UniProt:Q7TQN8
assay-overview: Agonist activity at rat GPR119 by HTRF cAMP assay relative to AR231453
Type: functional
endpoint-name: Emax (%)
Give bare numbers, in %.

1. CS(=O)(=O)c1cnc(O[C@H]2CC[C@H](OC3CCN(C(=O)Oc4ccccc4)CC3)CC2)cn1    104
2. CS(=O)(=O)c1cnc(O[C@H]2CC[C@H](OC3CCN(CC4(C(F)(F)F)CCCC4)CC3)CC2)cn1    88
3. COc1c(Nc2ccc(S(C)(=O)=O)nc2C)ncnc1OC1CCN(C(=O)OC(C)C)CC1    89

Now consider the entry below.
Recorded Emax of CC(C)S(=O)(=O)c1cnc(O[C@H]2CC[C@H](OC3CCN(C(=O)OC(C)(C)C)CC3)CC2)cn1 , please.
128

###

assay-overview: AUClast in Sprague-Dawley rat at 2 mg/kg, iv and po
Format: ADME, organism-based
conditions-used: in vivo
endpoint-name: AUC(0-t) (ng·h/mL)
Numbers only, in ng·h/mL.

Recorded AUC(0-t) of C[C@@H](OC(=O)N1CCC(O[C@H]2CC[C@H](Oc3cnc(S(C)(=O)=O)cn3)CC2)CC1)C(F)(F)F , please.
5210

###

test-target: Glucose-dependent insulinotropic receptor (Homo sapiens, UniProt Q8TDV5)
Sequence (Q8TDV5 whole entry): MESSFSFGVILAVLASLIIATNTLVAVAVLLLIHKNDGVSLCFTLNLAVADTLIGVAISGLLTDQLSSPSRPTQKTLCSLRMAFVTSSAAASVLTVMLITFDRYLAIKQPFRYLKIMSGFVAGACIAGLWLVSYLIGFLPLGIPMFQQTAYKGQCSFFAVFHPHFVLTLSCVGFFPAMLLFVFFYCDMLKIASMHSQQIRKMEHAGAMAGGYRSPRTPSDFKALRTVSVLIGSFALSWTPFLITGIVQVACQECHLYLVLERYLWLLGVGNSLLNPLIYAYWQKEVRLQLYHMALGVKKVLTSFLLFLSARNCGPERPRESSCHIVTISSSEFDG
assay-overview: Agonist activity at human GPR119 by HTRF cAMP assay
Assay type: functional
Provide the recorded EC50 for the entries that follow.

For orientation, consider the following solved cases.
1) Cc1nc(S(C)(=O)=O)ccc1O[C@H]1CC[C@H](OC2CCN(C(=O)OC(C)C)CC2)CC1    0.011 µM
2) CS(=O)(=O)c1cnc(O[C@H]2CC[C@H](OC3CCN(C(=O)OC(CF)CF)CC3)CC2)cn1    0.0651 µM
3) CC(C)OC(=O)N1CCC(O[C@H]2CC[C@H](Oc3cnc(S(C)(=O)=O)cn3)CC2)CC1    0.0137 µM
4) CC(C)(C)OC(=O)N1CCC(O[C@H]2CC[C@H](Oc3ccc(S(C)(=O)=O)cc3F)CC2)CC1    0.0085 µM
5) CC1(OC(=O)N2CCC(O[C@H]3CC[C@H](Oc4cnc(S(C)(=O)=O)cn4)CC3)CC2)CC1    0.0259 µM

Give one value of EC50 per listed compound.
1. CC(C)(C)OC(=O)N1CCC(OC2CCCC(Oc3ccc(S(C)(=O)=O)cc3)C2)CC1 (mixture of isomers)
2. CC(C)(C)OC(=O)N1CCC(O[C@H]2CC[C@H](Oc3ccc(S(C)(=O)=O)cc3)CC2)CC1
3. CCC(F)(F)C(=O)N1CCC(O[C@H]2CC[C@H](Oc3cnc(S(C)(=O)=O)cn3)CC2)CC1

1: > 100 µM; 2: 0.0161 µM; 3: 0.0053 µM

###

test-target: Glucose-dependent insulinotropic receptor (Rattus norvegicus)
Sequence (Q7TQN8 whole entry): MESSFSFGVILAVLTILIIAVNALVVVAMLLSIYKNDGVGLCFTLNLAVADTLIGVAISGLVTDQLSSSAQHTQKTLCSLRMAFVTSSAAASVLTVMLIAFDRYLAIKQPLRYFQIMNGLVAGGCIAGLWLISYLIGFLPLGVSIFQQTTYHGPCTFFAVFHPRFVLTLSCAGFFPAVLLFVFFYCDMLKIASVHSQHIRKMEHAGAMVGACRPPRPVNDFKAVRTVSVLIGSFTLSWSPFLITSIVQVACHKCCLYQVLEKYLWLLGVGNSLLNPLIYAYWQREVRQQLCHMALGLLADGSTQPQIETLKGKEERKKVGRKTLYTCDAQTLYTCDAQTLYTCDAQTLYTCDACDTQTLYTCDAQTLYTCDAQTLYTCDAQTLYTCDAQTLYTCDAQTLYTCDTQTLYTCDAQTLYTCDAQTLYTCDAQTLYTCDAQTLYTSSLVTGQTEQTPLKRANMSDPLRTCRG
assay-overview: Agonist activity at rat GPR119 by HTRF cAMP assay
pEC50: −log10 of the molar value.
Classification field: true (1) = pEC50 at or over 7; false (0) = pEC50 under 7.

Check out these entries, answers already filled in.
1) Cc1nc(O[C@H]2CC[C@H](OC3CCN(C(=O)OC(C)(C)C)CC3)CC2)ccc1C(=O)N(C)C    false (0)
2) CC(C)(C)OC(=O)N1CCC(O[C@H]2CC[C@H](Oc3ccc(S(C)(=O)=O)nn3)CC2)CC1    false (0)
3) CC(C)OC(=O)N1CCC(O[C@H]2CC[C@H](Oc3ccc(S(C)(=O)=O)nc3)CC2)CC1    false (0)

Is reported pEC50 greater than or equal to 7 here: CC(C)(C)OC(=O)N1CCC(O[C@H]2CC[C@H](Oc3ccc(S(C)(=O)=O)c(F)c3)CC2)CC1
false (0)

Query CS(=O)(=O)c1cnc(O[C@H]2CC[C@H](OC3CCN(C(=O)OC(CF)CF)CC3)CC2)cn1 next
false (0)

Query CS(=O)(=O)c1cnc(O[C@H]2CC[C@H](OC3CCN(C(=O)OC(C(F)(F)F)C(F)(F)F)CC3)CC2)cn1 next
true (1)

Query C[C@@H](OC(=O)N1CCC(O[C@H]2CC[C@H](Oc3cnc(S(C)(=O)=O)cn3)CC2)CC1)C(F)(F)F next
true (1)
